Test system: MS2 coat protein
assay.summary: apparent KD of MS2 coat protein; designed switch direction (-1 OFF switch, 1 ON switch): -1; higher = weaker reporter binding
condition.info: input ligand: none
measure: apparent KD of MS2 coat protein

**Q:** Identify the measured apparent KD of MS2 coat protein of UUAAUUAAUUAAGGCUGAAGAUCACAUGAGGAUCACCCAUGUAAGGAUAUCAGCUCGUGUAGAGCUGAGAAGGUACAUGCAGCC [ExNG3/18-B3] (Eterna round: R96, puzzle: Exclusion NG 3) for MS2 coat protein.
**A:** 336 nM

**Q:** Under MS2 coat protein: apparent KD of MS2 coat protein value of AGGCGCUCUGUUAGGAUAUUUGCUGACUACUAGGCGGAGAAGGAACAUGAGGAUCACCCAUGUAUACGAUCCGC [BmEX4 C.16] (Eterna round: R97, puzzle: Brourd's mod of Exclusion 4) ?
**A:** 12.1 nM

**Q:** Lab note: need apparent KD of MS2 coat protein with MS2 coat protein for entry CAUCAGGGAGGAUAUACAUAACUAAAAGGCUAGCAGUCCGUACAUGAGGAUCACCCAUGUAGAAGGCCCGAGUA [EX2 B.6] (Eterna round: R97, puzzle: Exclusion 2) , please look it up.
**A:** 20 nM

**Q:** Query the reported apparent KD of MS2 coat protein for MS2 coat protein; item: CUGUACUGAGGAUAUACAUGAGGAUCACCCAUGUGAUGUAGUGCACGCGUACGUGUACGUAGAAGGCAGUACAG [Mat - Exclusion 3 - Eli Mod - D41] (Eterna round: R97, puzzle: Exclusion 3)
**A:** 20.3 nM

**Q:** What is its apparent KD of MS2 coat protein for MS2 coat protein? Entry: AGGUCCUUCUGGAGACAUGAGGAUCACCCAUGUCGGGUCAGCGAGGAUAUCGGUUAAUAAUGUGACGAGAAGGCGCGGACCGAU [Ex NG3 #56] (Eterna round: R96, puzzle: Exclusion NG 3)
**A:** 24.9 nM

**Q:** So what apparent KD of MS2 coat protein did CCGCUCCGUGUAGGAUAUCGUUGUACCCUGCGGCGAGAAGGACAUGAGGAUCACCCAUGUAUGUUAUUAUCACGCGUGGCGCAC [Design 71] (Eterna round: R96, puzzle: Exclusion NG 1) get with MS2 coat protein?
**A:** 19.3 nM

**Q:** Form entry - test system: MS2 coat protein; read-out: apparent KD of MS2 coat protein; sequence: ACAUGAGGAUCACCCAUGUGAAAAGAAUGGCUGACACAGAGUUAGGAUAUGCGUGCAUAUCUAACGCAGAAGGGACAUGACUGG [Deportation 82 - Jieux - Exclusion NG 3] (Eterna round: R96, puzzle: Exclusion NG 3)
**A:** 30.2 nM

**Q:** Value wanted: apparent KD of MS2 coat protein (MS2 coat protein) of entry AGAUCGUCAGGAUAUACAUGAGGAUCACCCAUGUGUAGUCCAAAUUUGACUACAACAUGUAGAAGGGACGAUCG [Exclusion 3 (MOD2 of #1 Marzena11)] (Eterna round: R97, puzzle: Exclusion 3)
**A:** 44 nM

**Q:** Recorded apparent KD of MS2 coat protein for ACAAGCUUUUGGAUUUUCAACAUGAGGAUCACCCAUGUUCGUCUUAUGCGAGUGCGAGUGCGGUGUACUCGUAUUAG [JL TOV1 3.86 sellena mod] (Eterna round: R97, puzzle: Sensor, turn-off variant 1) with MS2 coat protein, please?
**A:** 24.4 nM
